System: B16
Assay: cells
Settings: Mus musculus, B16, 72 h
Description: Inhibition of melanogenesis in theophylline-stimulated mouse B16-4A5 cells after 72 hrs
IC50 reference

[
  {
    "Cpd Smiles": "COc1cc(CCC(C)=O)ccc1O",
    "IC50": "> 100 µM"
  },
  {
    "Cpd Smiles": "O=C1c2c(O)cc(O)cc2O[C@H](c2ccccc2)[C@H]1O",
    "IC50": "> 100 µM"
  }
]

// next item, IC50 requested
Using the record for "O=C(O)CCc1ccccc1" , state its measured IC50.
> 100 µM
